target: UniProtKB P28335; test: Inhibition of human 5HT2c receptor expressed in CHO-K1 cells assessed as inhibition of 5HT-induced calcium influx measured up to 30 secs by aequorin luminescence assay
Sequence (P28335 whole entry): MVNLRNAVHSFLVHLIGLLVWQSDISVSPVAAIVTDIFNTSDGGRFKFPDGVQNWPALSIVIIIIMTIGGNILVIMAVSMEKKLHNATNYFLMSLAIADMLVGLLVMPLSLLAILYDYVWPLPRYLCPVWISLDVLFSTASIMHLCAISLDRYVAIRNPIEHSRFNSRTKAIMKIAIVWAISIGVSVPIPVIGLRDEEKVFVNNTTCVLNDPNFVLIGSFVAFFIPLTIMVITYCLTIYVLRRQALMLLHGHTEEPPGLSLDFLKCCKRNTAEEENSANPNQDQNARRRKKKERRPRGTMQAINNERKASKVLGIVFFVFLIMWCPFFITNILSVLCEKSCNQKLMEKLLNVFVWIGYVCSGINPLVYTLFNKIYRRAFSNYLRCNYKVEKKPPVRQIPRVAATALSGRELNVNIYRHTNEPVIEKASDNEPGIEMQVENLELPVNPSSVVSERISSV
pIC50: −log10 of the molar value.
Please mark Y if the recorded pIC50 is equal to or greater than 7, and N if it falls below.

Data request: Reported pIC50 reaches at least 7 for COc1cc2c(cc1C(F)(F)F)N(C(=O)Nc1cccc(-c3cccnc3)c1)CC2 ?
Data returned: Y

Data request: Could you please find out whether O=C(Nc1cc(OC(F)(F)F)cc(-c2cccnc2)c1)N1CCc2ccc(F)cc21 has pIC50 that meets 7 or exceeds it?
Data returned: N

Data request: # check: pIC50 of COc1cc2c(cc1C(F)(F)F)N(C(=O)Nc1cc(OC(F)(F)F)cc(-c3cccnc3)c1)CC2 is greater than or equal to 7
Data returned: Y

Data request: Is pIC50 at least 7? Consider O=C(Nc1cc(OC(F)(F)F)cc(-c2cccnc2)c1)N1CCc2ccc(CO)cc21
Data returned: N

Data request: Could you tell me if the measured pIC50 of COc1cc2c(cc1C(F)(F)F)N(C(=O)Nc1cc(F)cc(-c3cccnc3)c1)CC2 reaches 7 or more?
Data returned: Y

Data request: Tell me whether pIC50 is at least 7 here: CN1CCN(c2cc3c(cc2Cl)CCN3C(=O)Nc2cc(OC(F)(F)F)cc(-c3cccnc3)c2)CC1
Data returned: N

Data request: Hello, I need to know if O=C(Nc1cc(OC(F)(F)F)cc(-c2cccnc2)c1)N1CCc2cccc(F)c21 has measured pIC50 not below 7. Thanks!
Data returned: N

Data request: Is pIC50 at least 7? Consider CN1CCN(c2ccc3c(c2)N(C(=O)Nc2cc(OC(F)(F)F)cc(-c4cccnc4)c2)CC3)CC1
Data returned: N

Data request: Say whether COc1cc2c(cc1C(F)(F)F)N(C(=O)Nc1cc(Br)cc(OC(F)(F)F)c1)CC2 shows pIC50 of 7 or more.
Data returned: N

Data request: Is it the case that COc1cc2c(cc1C(F)(F)F)N(C(=O)Nc1cc(-c3cccnc3)cc(C(F)(F)F)c1)CC2 has pIC50 reaching or exceeding 7?
Data returned: Y

Data request: Is reported pIC50 greater than or equal to 7 here: COc1cc2c(cc1C(F)(F)F)N(C(=O)Nc1cc(Br)cc(-c3cccnc3)c1)CC2
Data returned: Y

Data request: Check this compound for pIC50 at or above 7: O=C(Nc1cc(OC(F)(F)F)cc(-c2cccnc2)c1)N1CCc2ccccc21
Data returned: N
